Origin of values: PubChem BioAssay

Measured composite z-score of individual entries
- Tested on: Wnt5a (protein binding on small-molecule microarray)
- PROTOCOL: Wnt5a binders on small-molecule microarray, primary screen, biophysical, 635/667 nm fluorescence (AID 1142);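 note: fluorescence read at 667 nm with signal to noise per printed feature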
- CONDITION_DETAILS: 635 nm fluorescence, higher = more signal
READOUT_LABEL: composite z-score

# MOLECULE, RESULT
records = [
    ("CO[C@H]1COC(=O)CC=C[C@H](C)COC(=O)[C@@H](OCc2ccccc2)C=C[C@@H]1C", -0.192),
    ("COc1ccc([Si](C)(C)[C@H]2[C@H](CCO)O[C@@]3(C(=O)N(Cc4ccccc4)c4ccc(N5C(=O)c6cccc7cccc5c67)cc43)[C@@H]2C)cc1", -0.234),
    ("O=C(O)[C@@H]1Cc2c([nH]c3ccccc23)[C@@H](c2ccccc2)N1", 0.019),
    ("[N-]=[N+]=NCc1ccccc1C[C@]1(C(=O)N2CCCCC2)N=C(c2ccc(OCCCO)cc2)O[C@H]1c1ccccc1CN=[N+]=[N-]", 0.129),
    ("NC(=O)NCC#Cc1ccc2c(c1)[C@]1(C(=O)N2)[C@H](C(N)=O)[C@H]2C(=O)O[C@H](c3ccccc3)[C@H](c3ccccc3)N2[C@@H]1c1ccccc1OCCO", 0.0902),
    ("COC(=O)[C@@]1(Cc2ccc(OC)cc2)[C@H]2c3cc(C(=O)N(C)C)n(CCc4ccc(OC)c(Br)c4)c3C[C@H]2CN1C(=O)c1ccccc1", 0.839),
    ("O=C1C2C=CC(C(O)C#Cc3ccccc3)N(Nc3ccccc3)C2C(=O)N1c1ccccc1 (configuration not stated)", 0.0509),
]
